Data provenance: ChEMBL document CHEMBL1201862

Exercise: for every item that follows, state its recorded GI50.
tested on: UO-31; test: NCI tumour cell line growth inhibition, 48 h
Structures can show the parent of a compound that is named as a salt. Calls of active or inactive are those of the source. Rule as the data show it: active = GI50 up to about 1.1 µM and inactive = higher.

Lab note: measured GI50 of CCC/C(Cl)=N\OC(=O)Nc1cccc(C(F)(F)F)c1 was 19.6 µM (inactive)

For CNC(C)Cc1ccccc1OC (stereo not given) [METHOXYPHENAMINE HYDROCHLORIDE] the compound record lists GI50 as > 100 µM (inactive)

GI50 reported for this compound O=c1[nH]nc(NCc2ccccc2)c2nnn(Cc3ccccc3)c12 : > 100 µM (inactive)

Kindly note the recorded GI50 for CC(=O)N(O)CCCCCNC(=O)CCC(=O)N(O)CCCCCNC(=O)CCC(=O)N(O)CCCCCN [DEFEROXAMINE HYDROCHLORIDE] , which is 24.5 µM (inactive)

Lab note: measured GI50 of O=C(O)C1(C(=O)O)CC1(C(=O)O)C(=O)O was > 100 µM (inactive)

Recorded GI50 (compound C1=CC2=CC=CC3c4nc5ccc6ccccc6c5nc4C(=C1)C23 (stereo not given) ): > 100 µM (inactive)

Sample Nc1ccc([As](=O)(O)O)cc1 ; GI50 observed: > 100 µM (inactive)

Data point: Clc1ccc2c(SCC3CO3)c3ccccc3nc2c1 (stereo not given) ; GI50 = 1.76 µM (inactive)

Reported GI50 ( N=S(=O)(c1ccccc1)c1ccccc1 ) = > 100 µM (inactive)

According to the records, this compound O=C(CC(C(=O)c1cccs1)c1ccsc1)c1ccccc1 (stereo not given) displays GI50 of 37.8 µM (inactive)

response.value for CC(C)CN(CC#N)CC(C)C (field: GI50) = > 100 µM (inactive)

In plain terms, CO[C@@H]1C=C[C@@]23c4cc5c(cc4CN(C[C@@H]2O)[C@H]3C1)OCO5 [(+)-HAEMANTHAMINE] has a documented GI50 of 16.5 µM (inactive)

Reported GI50 ( O=C1/C(=C\c2ccc(Cl)cc2Cl)Sc2scc(-c3cccc([N+](=O)[O-])c3)[n+]21 ) = 3.47 µM (inactive)

Given item COc1ccc(C)cc1NC(=S)N/N=C/c1ccc(SC)cc1 , the value recorded as its GI50 is 84.3 µM (inactive)

Memo: CCCCCCCCCCCCOCC(COP(=O)(O)OCCN=[N+]=[N-])OC(=O)CCCCCCCCCCC (stereo not given) , reported GI50: > 100 µM (inactive)

Consider Cc1cccc(/N=N/C(=O)NNc2cccc(C)c2C)c1C . Its measured GI50 is 30.8 µM (inactive)

Lab book: GI50 of O=C/C1=C/C2=Cc3ccccc3C=C(/C=C(/C=O)C1)C2 noted as 34 µM (inactive)

Notebook: COc1cccc(C2c3cc4c(cc3OC(N3CCCCC3)C2C)OCO4)c1OC (stereo not given) , GI50 read as 7.05 µM (inactive)

COc1cc2c(cc1OC)C(CCN)=NCC2 has a reported GI50 of 1.77 µM (inactive)

So for CC1(C)COC(c2ccc(C(F)(F)F)cc2C(O)c2ccc3ccccc3c2)=N1 (stereo not given) , the logged GI50 turned out to be > 10 µM (inactive)

N=C(N)NS(=O)(=O)c1ccc(/N=N/c2c(O)c(C(=O)O)cc3ccccc23)cc1 yielded GI50 of > 100 µM (inactive)

Query CCOC(=O)c1c(-c2ccc(OC)cc2)ccn1C yields GI50 of > 10 µM (inactive)

The recorded GI50 for entry O=C1/C(=C/c2ccc(Br)s2)NC(=S)N1CN1CCOCC1 equals 37.5 µM (inactive)

GI50 recorded for this compound, N#C/C(=C1\OC(=N)C(c2ccccc2)C1=O)c1ccccc1 (stereo not given) , is 19.6 µM (inactive)

Entry under test: C=CCC1C(O[Si](C)(C)C(C)(C)C)C(CO[Si](C)(C)C(C)(C)C)OC1n1ccc(=O)[nH]c1=O (stereo not given) . Its GI50 was 1.36 µM (inactive)

O/N=C1/CCCc2nonc21 has a reported GI50 of > 100 µM (inactive)

GI50 recorded for this compound, S=C(S)NCC1CCC(CNC(=S)S)CC1 (stereo not given) , is 30.9 µM (inactive)

GI50 in this record for CSc1nc(SC)c2c(C)cn(Cc3ccccc3)c2n1 : 56.8 µM (inactive)

Lab note: measured GI50 of CSc1nc(SC)c2c(CN=[N+]=[N-])c(Br)n(Cc3ccccc3)c2n1 was > 100 µM (inactive)

Item: C=C1C(=O)C23CC1CCC2C12CO[C@H](O)[C@H]1C(C)(C)[C@H](OC(C)=O)C[C@H]2OC3=O (stereo not given in full) | GI50: 22.9 µM (inactive)

Entry Brc1ccc(C2=NCSC(c3ccc(Br)cc3)=N2)cc1 , GI50 reported as 15.4 µM (inactive)

Summary for this compound, O=C1/C(=C/c2ccccc2)CCCC/C1=C\c1ccccc1 : GI50 is 55 µM (inactive)

What the record says about O=C(O)C1C(C(=O)O)C(C(=O)O)C1C(=O)O (stereo not given) : GI50 is > 100 µM (inactive)

# GI50 of COc1ccc(OC)c(C2Cc3cnc4nc(N)nc(N)c4c3C2)c1 (stereo not given) = 71.9 µM (inactive)

The measured GI50 associated with C=C(C#N)C1OCC2OC(C)(C)OC21 (stereo not given) reads 40.5 µM (inactive)

Looking up COc1ccc2nccc(/C=C/c3ccc(N(C)C)cc3)c2c1 , I found its GI50 recorded as > 10 µM (inactive)

Summary for this compound, CN1CCc2cc3c4cc2C1Cc1ccc(cc1)Oc1cc(ccc1O)CC1c2c(cc(O)c(c2O4)O3)CCN1C (stereo not given) : GI50 is 3.44 µM (inactive)

GI50 recorded for this compound, C[Si](C)(OCCS(=O)(=O)O)C1(Cc2cccc3ccccc23)S(=O)(=O)OCCOS1(=O)=O , is 17.9 µM (inactive)

CCN1CCC(O)(c2ccccc2)C(C(=O)c2ccccc2)C1 (stereo not given) yielded GI50 of > 46.2 µM (inactive)

Reported GI50 for CN/C(N)=N/N=C1/C(=O)Nc2ccccc21 was > 100 µM (inactive)

Short answer for COC(=O)Nc1nc2cc(C(=O)c3cccs3)ccc2[nH]1 : GI50 was 0.0579 µM (active)

Just so you know, measured GI50 for OCC1OC(c2ccccc2)CC1O (stereo not given) came out at > 100 µM (inactive)

Kindly note the recorded GI50 for O=C1CCCCCCCCCCC(=O)C2CCOCCOCCOCCC1Cc1cccc(n1)C2 , which is 42.1 µM (inactive)

GI50 reported for this compound COc1ccc(-c2cc(=O)c3cc(C)c(C)c(C(=O)O)c3o2)cc1 : > 100 µM (inactive)

Given item C[C@H]1CCC2C(OC(=O)[C@@H]2CN(C)C)[C@]2(C)C(=O)C=CC12O (stereo not given in full) , the value recorded as its GI50 is 10.9 µM (inactive)
